Consider the following molecules; for each one, report its inhibition.
- target or system: Tyrosine-protein kinase receptor TYRO3 (Homo sapiens);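 note: reported percentages are averaged inhibition values of TYRO3 kinase activity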
- Sequence (whole entry): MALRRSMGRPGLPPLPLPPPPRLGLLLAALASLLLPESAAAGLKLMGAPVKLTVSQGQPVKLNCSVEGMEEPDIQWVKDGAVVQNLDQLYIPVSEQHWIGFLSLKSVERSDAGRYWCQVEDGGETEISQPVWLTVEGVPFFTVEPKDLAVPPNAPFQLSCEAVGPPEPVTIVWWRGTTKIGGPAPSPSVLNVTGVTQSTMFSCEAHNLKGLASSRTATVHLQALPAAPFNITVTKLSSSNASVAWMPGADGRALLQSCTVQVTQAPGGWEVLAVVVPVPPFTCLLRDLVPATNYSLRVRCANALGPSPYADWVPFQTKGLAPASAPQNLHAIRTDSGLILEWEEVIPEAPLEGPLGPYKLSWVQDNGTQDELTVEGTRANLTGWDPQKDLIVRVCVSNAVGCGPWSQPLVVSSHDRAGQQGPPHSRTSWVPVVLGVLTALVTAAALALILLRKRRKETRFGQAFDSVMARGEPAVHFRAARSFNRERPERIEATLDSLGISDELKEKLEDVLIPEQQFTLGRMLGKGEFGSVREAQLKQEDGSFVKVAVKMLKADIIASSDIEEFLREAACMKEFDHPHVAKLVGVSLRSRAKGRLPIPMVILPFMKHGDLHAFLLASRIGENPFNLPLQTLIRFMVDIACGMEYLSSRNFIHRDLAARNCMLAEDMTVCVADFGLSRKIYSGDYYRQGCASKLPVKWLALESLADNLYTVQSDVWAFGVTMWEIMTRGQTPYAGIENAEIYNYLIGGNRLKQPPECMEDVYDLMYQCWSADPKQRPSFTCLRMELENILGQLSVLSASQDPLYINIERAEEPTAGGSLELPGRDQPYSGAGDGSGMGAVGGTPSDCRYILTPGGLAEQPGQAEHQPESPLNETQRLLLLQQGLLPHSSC
- stated conditions: at 0.1 µM
Report as a plain number; the unit % is understood.

Fill: inhibition (Tyrosine-protein kinase receptor TYRO3 (Homo sapiens)) for this molecule `c1ccc(-c2n[nH]cc2-c2ccnc(-c3ccc(OCCn4ccnc4)cc3)c2)nc1`
1.13

Fill: inhibition (Tyrosine-protein kinase receptor TYRO3 (Homo sapiens)) for this molecule `CS(=O)(=O)Nc1ccc(-c2cc(-c3ccccc3)cc(C(N)=O)c2N)cc1`
0.01

Fill: inhibition (Tyrosine-protein kinase receptor TYRO3 (Homo sapiens)) for this molecule `Cc1cc(O)cc(C)c1/C=C/c1cncc(C(N)=O)c1`
2.41

Fill: inhibition (Tyrosine-protein kinase receptor TYRO3 (Homo sapiens)) for this molecule `COc1cccc(-n2ncc3c(N/N=C/c4ccc(C(=O)NCCN(C)C)cc4)ncnc32)c1`
16.6

Fill: inhibition (Tyrosine-protein kinase receptor TYRO3 (Homo sapiens)) for this molecule `CCn1c(-c2nonc2N)nc2cncc(C(=O)NCCNC)c21`
3.7

Fill: inhibition (Tyrosine-protein kinase receptor TYRO3 (Homo sapiens)) for this molecule `CS(=O)(=O)CCNCc1ccoc1-c1ccc2ncnc(Nc3ccc(OCc4ccccc4)cc3)c2c1`
0.96

Fill: inhibition (Tyrosine-protein kinase receptor TYRO3 (Homo sapiens)) for this molecule CC1=C(C(=O)Nc2ccc3[nH]ncc3c2)C(c2ccc(F)cc2)N=C(c2ccc(C(F)(F)F)nc2)N1 (configuration not stated)
2.47
